Where do the numbers come from? From the supplement of paper PMC10307832.

Hi there, I'd appreciate the recorded relative viability for every entry that follows.
Tested on: LCLC-103H
Assay: relative viability (nuclei count vs DMSO), 5 days (fraction); higher = more cells survive
Settings: first compound 5 µM

compound="O=C(O)CCCCC(CCSCc1ccccc1)SCc1ccccc1 (centres undefined) [CPI-613] + CC(=O)c1c(C)c2cnc(Nc3ccc(N4CCNCC4)cn3)nc2n(C2CCCC2)c1=O [Palbociclib] (partner 0.5 µM)" measured_value=0.464
compound="O=C(O)CCCCC(CCSCc1ccccc1)SCc1ccccc1 (centres undefined) [CPI-613] + N=C(N)NC(=N)NCCc1ccccc1 [Phenformin] (partner 250 µM)" measured_value=0.322
compound="O=C(O)CCCCC(CCSCc1ccccc1)SCc1ccccc1 (centres undefined) [CPI-613] + Nc1ncn([C@H]2C[C@H](O)[C@@H](CO)O2)c(=O)n1 [Decitabine] (partner 2 µM)" measured_value=0.753

Please look at the following compound next.
Asked: I am curious: what relative viability value has been reported for O=C(O)CCCCC(CCSCc1ccccc1)SCc1ccccc1 (centres undefined) [CPI-613] + C[C@]1(O)C[C@@H](c2nc(-c3ccc4ccc(-c5ccccc5)nc4c3)c3c(N)nccn32)C1 [Linsitinib] (partner 1 µM) ?
Given back: 1.11

====

Test system: NCI-H1792
Test: relative viability (nuclei count vs DMSO), 5 days (fraction); higher = more cells survive
Conditions: first compound 50 µM
ASSAY_ENDPOINT: relative viability
One number for each entry.

Completed entries (count: 3):
compound="O=C(O)CCCCC(CCSCc1ccccc1)SCc1ccccc1 (centres undefined) [CPI-613] + N=C(N)NC(=N)NCCc1ccccc1 [Phenformin] (partner 250 µM)" tested_system=NCI-H1792 measured_value=0.236
compound="O=C(O)CCCCC(CCSCc1ccccc1)SCc1ccccc1 (centres undefined) [CPI-613] + CC(=O)c1c(C)c2cnc(Nc3ccc(N4CCNCC4)cn3)nc2n(C2CCCC2)c1=O [Palbociclib] (partner 0.5 µM)" tested_system=NCI-H1792 measured_value=0.654
compound="O=C(O)CCCCC(CCSCc1ccccc1)SCc1ccccc1 (centres undefined) [CPI-613] + Nc1nc2[nH]cc(CCc3ccc(C(=O)N[C@@H](CCC(=O)O)C(=O)O)cc3)c2c(=O)[nH]1 [Pemetrexed] (partner 0.2 µM)" tested_system=NCI-H1792 measured_value=0.636

Could you now look at the following compound, please?
Asked: Fill in the recorded relative viability for this compound, with NCI-H1792 as test system: O=C(O)CCCCC(CCSCc1ccccc1)SCc1ccccc1 (centres undefined) [CPI-613] + CC1(C)CCC(c2ccc(Cl)cc2)=C(CN2CCN(c3ccc(C(=O)NS(=O)(=O)c4ccc(N[C@H](CCN5CCOCC5)CSc5ccccc5)c(S(=O)(=O)C(F)(F)F)c4)cc3)CC2)C1 [Navitoclax] (partner 0.5 µM)
Given back: 0.603

====

System: NCI-H460
Experiment: relative viability (nuclei count vs DMSO), 5 days (fraction); higher = more cells survive
Details: first compound 2.53 µM
ASSAY_ENDPOINT: relative viability
Numbers only.

compound="Cc1cnc(-c2cnc(NCCNc3ccc(C#N)cn3)nc2-c2ccc(Cl)cc2Cl)[nH]1 + CC1(C)CCC(c2ccc(Cl)cc2)=C(CN2CCN(c3ccc(C(=O)NS(=O)(=O)c4ccc(N[C@H](CCN5CCOCC5)CSc5ccccc5)c(S(=O)(=O)C(F)(F)F)c4)cc3)CC2)C1 [Navitoclax] (partner 0.5 µM)" tested_system=NCI-H460 measured_value=1.04
compound="Cc1cnc(-c2cnc(NCCNc3ccc(C#N)cn3)nc2-c2ccc(Cl)cc2Cl)[nH]1 + Nc1nc2[nH]cc(CCc3ccc(C(=O)N[C@@H](CCC(=O)O)C(=O)O)cc3)c2c(=O)[nH]1 [Pemetrexed] (partner 0.2 µM)" tested_system=NCI-H460 measured_value=0.0722
compound="O=c1[nH]c2ccccc2n1C1CCN(CCCC(c2ccc(F)cc2)c2ccc(F)cc2)CC1 [Pimozide] + CC1(C)CCC(c2ccc(Cl)cc2)=C(CN2CCN(c3ccc(C(=O)NS(=O)(=O)c4ccc(N[C@H](CCN5CCOCC5)CSc5ccccc5)c(S(=O)(=O)C(F)(F)F)c4)cc3)CC2)C1 [Navitoclax] (partner 0.5 µM)" tested_system=NCI-H460 measured_value=1.06

Now let's try a different one.
Asked: Need relative viability, item Cc1cnc(-c2cnc(NCCNc3ccc(C#N)cn3)nc2-c2ccc(Cl)cc2Cl)[nH]1 + COc1cc2c(Oc3ccc(NC(=O)C4(C(=O)Nc5ccc(F)cc5)CC4)cc3F)ccnc2cc1OCCCN1CCOCC1 [Foretinib] (partner 0.25 µM)
Given back: 0.885
